Each recorded value in this set is attributed to patent USRE38117E1.

System: MALME-3M
test.summary: NCI 60 cell line screen (SRB), Melanoma
Type: cell-based
test.parameters: MALME-3M (Melanoma)
result.type: Log10TGI (M)
The response must be a number in M with no trailing unit.

molecule	unit.info	observed.measurement
C[C@@H]1CC[C@H]2[C@@H](C)C(=O)O[C@@H]3O[C@@]4(C)CC[C@@H]1[C@]32OO4 [QHS, reference compound]	M	−4.06

Which Log10TGI is reported with MALME-3M for this entry: CC(=O)O[C@H]1C(=O)[C@@]2(C)[C@H]([C@H](OC(=O)c3ccccc3)[C@]3(O)C[C@H](OC(=O)[C@H](O)[C@@H](NC(=O)c4ccccc4)c4ccccc4)C(C)=C1C3(C)C)[C@]1(OC(C)=O)CO[C@@H]1C[C@@H]2O [Paclitaxel, paclitaxel, reference compound] ?
−4.46
